Test system: SK-OV-3 ovarian
Method summary: NCI-60 one-dose screen, 48 h
Settings: 10 µM
Compounds without any hit were thinned out: in the full panel of roughly 83,000, 20% have a hit. Calls of active or inactive are those of the source. How the source made its calls: active means growth percent below 10; inactive means the rest.
Outcome codes: 1 (active), -1 (inactive)

O=C(CSc1nnc(-c2ccc3nc(-c4ccc(Cl)cc4)[nH]c3c2)o1)Nc1ccc(Br)cc1 | -1
O=C(CSc1nnc(-c2c[nH]c3ccccc23)n1-c1ccccc1)Nc1ccc(C(=O)/C=C/c2ccc(Cl)cc2)cc1 | -1
CC(C)C1=C[C@@]23CC[C@@H]4[C@](C)(CCC[C@]4(C)C(=O)NCc4ccccc4)[C@H]2C[C@@H]1[C@H]1C(=O)OC(=O)[C@H]13 | -1
O=C(CS(=O)(=O)c1oc(-c2ccc(Cl)cc2)nc1S(=O)(=O)c1ccc(Cl)cc1)N1CCOCC1 | -1
COc1ccc(-c2nc(S(=O)(=O)c3ccccc3)c(S(C)(=O)=O)o2)cc1 | -1
CN1CCN(c2ccc(Nc3nc(NCCCNC(=O)c4ccc(Cl)cc4)c4sccc4n3)cc2)CC1 | -1
Cn1cc(/C=N/Nc2ccnc3cc(Cl)ccc23)c2ccccc21 | 1
COC1CC(Cn2cc(COc3ccc4ccc(=O)oc4c3)nn2)C(OCc2ccccc2)C(OCc2ccccc2)C1OCc1ccccc1 (stereo not given) | -1
C=C(C)[C@@H]1CC[C@]2(C)[C@H](CC=C3[C@@H]4CC(C)(C)CC[C@]4(C(=O)N4CCOCC4)CC[C@]32C)[C@@]1(C)CCCN | 1
O=S(=O)(Nc1ncccn1)c1ccc(-n2c(-c3ccc(Br)cc3)nc(-c3ccccc3)c2-c2ccccc2)cc1 | -1
COc1cc2c(c(OC)c1OC)C(=O)CC(c1cccc(NC(=O)c3cccc(N)c3)c1)O2 (stereo not given) | -1
CCC(C)S(=O)(=O)c1oc(-c2ccc(C)cc2)nc1S(=O)(=O)c1ccccc1 (stereo not given) | -1
CC1(c2ccccc2)NC(=O)N(CC(=O)Nc2ccc(C(=O)/C=C/c3ccc(Br)cc3)cc2)C1=O (stereo not given) | -1
COc1ccc(-c2cc(C(=O)N=Nc3c(O)[nH]c4ccccc34)c3ccccc3n2)cc1 | -1
COc1cnc2c(c1)C(=O)c1c-2n(CCCNCCO)c(=O)c2cc(OC)c(OC)cc12 | 1
CN(C)c1nc(NCCNS(=O)(=O)c2ccc(C(=O)/C=C/c3ccccc3)cc2)nc(Nc2ccc(F)cc2)n1 | -1
CN1C(=O)N(C)C2SC(N/N=C/c3ccccc3)=NC21 (stereo not given) | -1
Cn1cc(/C=N/Nc2cccc(Cl)n2)c2ccccc21 | -1
CC1(C)CC[C@]2(C(=O)NCCCNCCCCNCCCN)CC[C@]3(C)C(=CC[C@@H]4[C@@]5(C)Cc6c([nH]c7ccccc67)C(C)(C)[C@@H]5CC[C@]43C)[C@H]2C1 | -1
CCOC(=O)C1=C(N)N(c2ccccc2)C2=C(C(=O)CC(C)(C)C2)C1c1ccccc1OC (stereo not given) | -1
O=C1CCC(N2Cc3cc(NC(=O)COc4ccccc4)ccc3C2=O)C(=O)N1 (stereo not given) | -1
O=C1Nc2ccc(Cl)cc2/C1=C/c1ccc(OCc2ccccn2)cc1 | -1
COc1ccc(/C(CSc2nnc(-c3c[nH]c4ccccc34)n2-c2ccccc2)=N/O)cc1 | -1
COc1ccc2[nH]c(O)c(N=NC(=O)c3cc(-c4ccc(C)cc4)nc4ccccc34)c2c1 | -1
CO[C@@H]1CSSC1Cn1nc(-c2ccc(Oc3ccccc3)cc2)c2c(N)ncnc21 (stereo not given in full) | 1
COc1cc2c3c(n(CCCNCCO)c(=O)c2cc1OC)-c1nc2c(cc1C3=O)OCO2 | 1
Cc1ccc(CNC(=O)Cc2ccc3c(c2)CN(C2CCC(=O)NC2=O)C3=O)cc1 (stereo not given) | -1
O=C1Nc2ccc(Cl)cc2/C1=C/c1cccc(OCc2ccccc2)c1 | -1
COc1ccc(C(=O)NC(=S)N2CCN(c3ncnc4c3cnn4-c3ccccc3)CC2)cc1 | 1
Cc1ccc(-c2nc3ccc(C(=O)N=Nc4c(O)[nH]c5ccc(Cl)cc45)cc3[nH]2)cc1 | -1
COc1ccc(-c2nc(S(=O)(=O)c3ccc(C)cc3)c(S(=O)(=O)CC(=O)N(C)Cc3ccccc3)o2)cc1 | -1
Cc1cc(C)nc(SCC(=O)Nc2ccc(S(N)(=O)=O)cc2)n1 | -1
CC(=O)Nc1ccc(-c2cn(-c3cccc(C(=O)Nc4ccc(Cl)c(C(F)(F)F)c4)c3)nn2)cn1 | 1
C=CC(=O)Nc1nc(-c2cccc(NS(=O)(=O)c3cccc4c(N(C)C)cccc34)c2)cs1 | -1
O=C(c1ccc(Cl)cc1)C1[C@H](c2ccccc2Br)[C@@H](c2ccccc2)NC12C(=O)Nc1ccc(Cl)cc12 (stereo not given in full) | -1
